# assayRemarks: Cmax in rat at 2 mg/kg, iv
# Assay type: ADME, organism-based
# Set-up: dose 2 mg/kg, route intravenous
# settings: in vivo
Cmax overview
Param answer (str): number followed by unit.

CC(=O)NCCNc1nc2sc(-c3ccc(F)cc3)nc2c2c1ncn2C : 4700 nM

Problem: Which Cmax is reported for this compound? CNc1nc2sc(-c3cccc(CNC(=O)c4csnn4)c3)nc2c2c1ncn2C
Solution: 3900 nM

Problem: Which Cmax is reported for this compound? CNc1nc2sc(N3CCCCCC3)nc2c2c1ncn2C
Solution: 300 nM

Problem: Which Cmax is reported for this compound? CNc1nc2sc(-c3ccc(F)c(CNC(C)=O)c3)nc2c2c1ncn2C
Solution: 800 nM

Problem: Which Cmax is reported for this compound? CNc1nc2sc(-c3cccc(CNC(=O)c4ccno4)c3)nc2c2c1ncn2C
Solution: 2300 nM

Problem: Which Cmax is reported for this compound? CCN(CC)C(=O)c1nc2c(nc(NC)c3ncn(C)c32)s1
Solution: 1100 nM

###

# testedOn: Cyclin-dependent kinase 2 (Homo sapiens, UniProt P24941)
IC50 overview
Report the figure in µM without appending any unit label.

CNc1nc2oc(-c3ccccc3)nc2c2c1ncn2C : 16

# context switch: different compound, same IC50
Problem: Which IC50 is reported for this compound? CNc1nc2sc(-c3cccc(CNC(C)=O)c3)nc2c2c1ncn2C
Solution: 31

###

# Tested on: Liver microsomes
# assayRemarks: Metabolic stability in rat liver microsomes assessed as clearance at 3 uM after 1 hr
# Type: ADME, Microsome
Lab note: anything with CL below 0.1 nmol/mg/min is marked Yes; values at 0.1 nmol/mg/min or higher are marked No.

CC(=O)NCCNc1nc2sc(-c3ccc(F)cc3)nc2c2c1ncn2C : Yes
CNc1nc2sc(-c3cccc(CNS(C)(=O)=O)c3)nc2c2c1ncn2C : No

Problem: Identify whether the compound CNc1nc2sc(-c3ccc(F)cc3)nc2c2c1ncn2C records CL below 0.1 nmol/mg/min.
Solution: Yes

Problem: Identify whether the compound CNc1nc2sc(-c3ccc(F)c(CNS(C)(=O)=O)c3)nc2c2c1ncn2C records CL below 0.1 nmol/mg/min.
Solution: No

Problem: Identify whether the compound CNc1nc2sc(-c3cccc(CNC(=O)c4ccno4)c3)nc2c2c1ncn2C records CL below 0.1 nmol/mg/min.
Solution: No

Problem: Identify whether the compound CNc1nc2c(nc(-c3ccccc3)n2C)c2c1ncn2C records CL below 0.1 nmol/mg/min.
Solution: Yes

Problem: Identify whether the compound CNc1nc2sc(N3CCCCCC3)nc2c2c1ncn2C records CL below 0.1 nmol/mg/min.
Solution: No

Problem: Identify whether the compound Cn1cnc2c(NCCNCCO)nc3sc(-c4ccc(F)cc4)nc3c21 records CL below 0.1 nmol/mg/min.
Solution: Yes

Problem: Identify whether the compound CNc1nc2sc(-c3cccc(CNC(=O)c4csnn4)c3)nc2c2c1ncn2C records CL below 0.1 nmol/mg/min.
Solution: No

Problem: Identify whether the compound CNc1nc2sc(-c3ccccc3)nc2c2c1ncn2C records CL below 0.1 nmol/mg/min.
Solution: No

Problem: Identify whether the compound CNc1nc2cc(-c3ccccc3)nn2c2c1ncn2C records CL below 0.1 nmol/mg/min.
Solution: Yes

Problem: Identify whether the compound CNc1nc2oc(-c3ccccc3)nc2c2c1ncn2C records CL below 0.1 nmol/mg/min.
Solution: No
